Each record here notes measured solubility thermodynamic.
Experiment: Equilibrium aqueous solubility of the compound at pH 7
Format: physicochemical

[[record]]
compound = "COc1nc2ccc(C(O)(c3ccc(Cl)cc3)c3cncn3C)cc2c(Cl)c1Cc1ccc(-n2cccn2)cc1 (stereo not drawn)"
result = "< 1 µM"

[[record]]
compound = "COc1nc2ccc(C(O)(c3ccc(C(F)(F)F)nc3)C3CN(C(C)=O)C3)cc2c(Cl)c1CN1CCC(C(F)(F)F)CC1 (stereo not drawn)"
result = "< 4 µM"

[[record]]
compound = "COc1nc2ccc(C(O)(c3ccc(C)nc3C)c3cnnn3C)cc2c(Cl)c1CN1CCC(n2cccn2)CC1 (stereo not drawn)"
result = "30 µM"

[[record]]
compound = "COc1nc2ccc(C(O)(c3cc(C)nc(C)c3)c3cnnn3C)cc2c(Cl)c1CN1CCC(C(F)(F)F)CC1 (stereo not drawn)"
result = "< 1 µM"

[[record]]
compound = "COc1nc2ccc([C@](O)(c3ccnc(C(F)(F)F)c3)c3cnc(C)n3C)cc2c(Cl)c1CN1CCC(C(F)(F)F)CC1"
result = "< 4 µM"


Quote solubility thermodynamic reported for COc1nc2ccc(C(O)(c3ccc(C)nc3C)c3cnnn3C)cc2c(Cl)c1C (stereo not drawn) please.
< 4 µM

Dear colleague, please send me the reported solubility thermodynamic for COc1nc2ccc(C(O)(c3cnc(C)n3C)C3CN(C(C)=O)C3)cc2c(Cl)c1CN1CCC(C(F)(F)F)CC1 (stereo not drawn) when you can.
> 400 µM

Let me know recorded solubility thermodynamic for COc1nc2ccc(C(O)(c3ccc(C)nc3C)c3cnnn3C)cc2c(Cl)c1OCC1CC1 (stereo not drawn) , thanks.
< 1 µM

The measured values listed here are drawn from ChEMBL document CHEMBL4340540.
